Test system: L1210 leukemia ip in BDF1 mice, survival T/C
ASSAY_PROCEDURE: NCI In Vivo Anticancer Drug Screen. Data for tumor model L1210 Leukemia (intraperitoneal) in B6D2F1 (BDF1) mice
CONDITION_INFO: endpoint: mean survival time; dose: 200.0 mg/kg/injection; schedule: Q01DX009 (ip); vehicle: Klucel (hydroxypropylcellulose) (HPC); higher = longer survival
Toxic doses and inconclusive results are not listed.
Known T/C of a selection of compounds
OBSERVABLE: T/C

[
  {
    "COMPOUND": "CC(=O)Nc1cc([N+](=O)[O-])ccc1CC(O)c1ccccc1 (stereo not drawn)",
    "TARGET": "L1210 leukemia ip in BDF1 mice, survival T/C",
    "VALUE": "111 % of control"
  },
  {
    "COMPOUND": "COc1ccc(/C=N/NC(=O)Nc2ccccc2)cc1OC",
    "TARGET": "L1210 leukemia ip in BDF1 mice, survival T/C",
    "VALUE": "89 % of control"
  },
  {
    "COMPOUND": "CC(=O)CC(=O)Nc1cccc(Cl)c1C",
    "TARGET": "L1210 leukemia ip in BDF1 mice, survival T/C",
    "VALUE": "89 % of control"
  },
  {
    "COMPOUND": "c1ccc(-c2[nH]c3ccccc3c2-c2ccccc2)cc1",
    "TARGET": "L1210 leukemia ip in BDF1 mice, survival T/C",
    "VALUE": "103 % of control"
  },
  {
    "COMPOUND": "COc1ccc(NC(=O)Nc2cc(C)ccc2C)cc1",
    "TARGET": "L1210 leukemia ip in BDF1 mice, survival T/C",
    "VALUE": "86 % of control"
  },
  {
    "COMPOUND": "C(=C\\c1ccccc1)/Cc1ccccc1",
    "TARGET": "L1210 leukemia ip in BDF1 mice, survival T/C",
    "VALUE": "95 % of control"
  },
  {
    "COMPOUND": "O=C(Nc1ncccc1[N+](=O)[O-])C(Cl)(Cl)Cl",
    "TARGET": "L1210 leukemia ip in BDF1 mice, survival T/C",
    "VALUE": "108 % of control"
  },
  {
    "COMPOUND": "N#CCCN(C(=S)Nc1ccc(Cl)c(Cl)c1)C1CCCCC1",
    "TARGET": "L1210 leukemia ip in BDF1 mice, survival T/C",
    "VALUE": "113 % of control"
  },
  {
    "COMPOUND": "O=C(c1ccccc1Cl)N(Cc1ccccc1)c1ccccc1",
    "TARGET": "L1210 leukemia ip in BDF1 mice, survival T/C",
    "VALUE": "103 % of control"
  },
  {
    "COMPOUND": "CCOc1ccccc1NC(=O)Nc1cccc(Cl)c1",
    "TARGET": "L1210 leukemia ip in BDF1 mice, survival T/C",
    "VALUE": "94 % of control"
  },
  {
    "COMPOUND": "CC1CC=C(N2CCOCC2)CC1 (stereo not drawn)",
    "TARGET": "L1210 leukemia ip in BDF1 mice, survival T/C",
    "VALUE": "97 % of control"
  },
  {
    "COMPOUND": "C(=N\\OCc1ccccc1)/c1ccccn1",
    "TARGET": "L1210 leukemia ip in BDF1 mice, survival T/C",
    "VALUE": "101 % of control"
  },
  {
    "COMPOUND": "OCC(Oc1ccccc1)C(O)C(O)C(CO)Oc1ccccc1 (stereo not drawn)",
    "TARGET": "L1210 leukemia ip in BDF1 mice, survival T/C",
    "VALUE": "103 % of control"
  }
]

Every entry's value here was drawn from PubChem BioAssay AID248.
